Test system: Klebsiella pneumoniae expressing VIM-1 (IHMA599644)
Test: Antibiotic potentiation activity: synergistic concentration (MITC95) with imipenem, growth by OD600
Type: cell-based
Details: 95% inhibition of bacterial growth, strain IHMA599644
recorded.metric: VIM1 KP599644 MITC95 (µM)

> print(dat)
                                   molecule  number
1  O=C(O)[C@@H](CC1CC1)[C@H](Cc1ccccc1)c1nnn[nH]1 [Example 13]      50
2  CC(C)C[C@H](C(=O)O)[C@H](Cc1ccc(-c2ccc(N)nc2)cn1)c1nn[nH]n1 [Example 172]      50
3  CC(C)C[C@H](C(=O)O)[C@H](Cc1ccc(-c2ccnc(N)c2)cn1)c1nn[nH]n1 [Example 179]      50

---

Biological target: IMP-1 (Serratia marcescens, UniProt P52699)
Sequence (P52699 19-246, looked up, species assumed): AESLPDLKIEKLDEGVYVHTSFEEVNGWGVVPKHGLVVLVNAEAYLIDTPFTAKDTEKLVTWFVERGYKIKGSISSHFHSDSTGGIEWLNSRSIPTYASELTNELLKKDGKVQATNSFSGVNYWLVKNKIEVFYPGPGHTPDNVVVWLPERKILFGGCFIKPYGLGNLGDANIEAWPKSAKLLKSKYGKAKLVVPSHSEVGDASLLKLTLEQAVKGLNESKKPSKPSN
Experiment: Enzyme activity: determination of IC50, fluorescence assay with CCF2-FA substrate
Type: biochemical
Conditions: enzyme 2 pM, CCF2-FA 1.25 μM, 2 hours at 25° C.; read-out: IMP1 IC50
pIC50: −log10 of the molar value.
Given measured pIC50, output TRUE if it is greater than or equal to 7 and FALSE if not.

> print(dat)
                                    compound  answer.label
 1  CC(C)[C@H](C(=O)O)[C@H](Cc1cnc(N)nc1)c1nnn[nH]1         FALSE
 2  CC(C)C[C@H](C(=O)O)[C@H](Cc1ccc(-c2ccc(CN)cc2)cn1)c1nn[nH]n1         FALSE
 3  CCC[C@H](C(=O)O)[C@H](Cc1ccc(NCCn2ccnn2)cc1)c1nn[nH]n1         FALSE
 4  O=C(O)[C@@H](CC1CCCC1)[C@H](Cc1ccccc1)c1nnn[nH]1          TRUE
 5  NCc1ccc(-c2ccc(C[C@H](c3nnn[nH]3)[C@@H](C(=O)O)C3CCCC3)cc2)cc1          TRUE
 6  CCCCC[C@H](C(=O)O)[C@H](Cc1ccc2c(c1)OCO2)c1nnn[nH]1         FALSE
 7  CCC[C@H](C(=O)O)[C@H](Cc1ccc(-c2cccc(OC3CCNCC3)n2)cc1)c1nn[nH]n1         FALSE
 8  CCC[C@H](C(=O)O)[C@H](Cc1ccc(N2CCC[C@@H](N)C2)cc1)c1nn[nH]n1         FALSE
 9  CCC[C@H](C(=O)O)[C@H](Cc1ccc(NCCO)cn1)c1nnn[nH]1         FALSE
10  CCC[C@H](C(=O)O)[C@H](Cc1ccc(-c2cnn(C)c2)cc1)c1nnn[nH]1          TRUE
11  CCC[C@H](C(=O)O)[C@H](Cc1ccc(C)cc1)c1nn[nH]n1         FALSE
12  CC(C)[C@H](C(=O)O)[C@H](Cc1ccc(-c2ccc3c(c2)CNC3)nc1)c1nnn[nH]1         FALSE
13  CC(C)C[C@H](C(=O)O)[C@H](Cc1ccc(C2CCNCC2)nc1)c1nnn[nH]1         FALSE
14  CC[C@H](C(=O)O)[C@H](Cc1ccccc1)c1nnn[nH]1         FALSE
15  CCC[C@H](C(=O)O)[C@H](Cc1ccc(-c2ccc(C(C)N3CCOCC3)cc2)cc1)c1nn[nH]n1 (some centres unmarked)          TRUE
